Data provenance is the NIST ThermoML archive (doi:10.1016/j.jct.2008.11.003).

Listing of recorded refractive index by entry.
Assay: refractive index (Na D-line) (dimensionless)
Conditions: 308.15 K; 101.33 kPa; Liquid; Standard Abbe refractometry
readout_type: refractive index

INSERT INTO assay_data (molecule, result_value) VALUES
  ('CC(O)C(=O)[O-].[NH3+]CCO (stereo not given) [2-hydroxyethylammonium lactate]', 1.43557),
  ('CC(=O)[O-].OCC[NH2+]CCO [2,2''-azanediylbis(ethanol) acetate]', 1.43137),
  ('CC(=O)[O-].[NH3+]CCO [2-hydroxyethylammonium acetate]', 1.4351),
  ('CC(=O)[O-].C[NH+](CCO)CCO [N-methyldiethanolammonium acetate]', 1.43023),
  ('CC(O)C(=O)O.OCCNCCO [diethanolamine lactate]', 1.44056);
